# Test system: VM46 (resistant variant of human colon carcinoma HCT 116)
# assay_procedure: In vitro cytotoxicity, cell colony formation assay, VM46
# Assay type: cell-based
# test_settings: 72 h drug incubation
reported_endpoint: IC50 (nM)
Response body: numeric value in nM, unit text excluded.

{"molecule": "CC(=O)OC12COC1CC(O)C1(C)C(=O)C(OC(=O)C3CC3)C3=C(C)C(OC(=O)C(O)C(NC(=O)OC(C)(C)C)c4ccncc4)CC(O)(C(OC(=O)c4ccccc4)C21)C3(C)C (centres unmarked) [Compound 2813]", "reported_endpoint": "IC50", "display_unit": "nM", "observed_value": 8.22}

// IC50 lookup, key: CC(=O)OC12COC1CC(O)C1(C)C(=O)C(OC(=O)C3CC3)C3=C(C)C(OC(=O)C(O)C(NC(=O)OCC(C)C)c4ccco4)CC(O)(C(OC(=O)c4ccccc4)C21)C3(C)C (centres unmarked) [Compound 3102, reference compound]
1.49

---

# System: Sprague-Dawley rats
# assay_procedure: In vivo toxicity assessment in rats, intravenous
# test_settings: IV; summary score, scale 0 to 10
reported_endpoint: Rat tox score IV
API note: the answer field is a bare number with no unit suffix.

Take a look at these entries with their results.
{"molecule": "CC(=O)OC12COC1CC(O)C1(C)C(=O)C(OC(=O)C3CC3)C3=C(C)C(OC(=O)C(O)C(NC(=O)OC(C)(C)C)c4ccoc4)CC(O)(C(OC(=O)c4ccccc4)C21)C3(C)C (stereo not drawn) [Compound 2781, reference compound]", "tested_on": "Sprague-Dawley rats", "Rat tox score IV": 1}
{"molecule": "CC(=O)OC12COC1CC(O)C1(C)C(=O)C(OC(=O)C3CC3)C3=C(C)C(OC(=O)C(O)C(NC(=O)OC(C)(C)C)c4cccs4)CC(O)(C(OC(=O)c4ccccc4)C21)C3(C)C (stereo not drawn) [Compound 0854, reference compound]", "tested_on": "Sprague-Dawley rats", "Rat tox score IV": 1}

Alright, here's another molecule for you.
What reported Rat tox score IV corresponds to CC(=O)OC12COC1CC(O)C1(C)C(=O)C(OC(=O)C3CC3)C3=C(C)C(OC(=O)C(O)C(NC(=O)OCC(C)C)c4ccco4)CC(O)(C(OC(=O)c4ccccc4)C21)C3(C)C (stereo not drawn) [Compound 3102, reference compound] on Sprague-Dawley rats?
6

---

# Test system: Sprague-Dawley rats
# assay_procedure: In vivo toxicity assessment in rats, intravenous
# test_settings: IV; summary score, scale 0 to 10
reported_endpoint: Rat tox score IV

Take a look at these entries with their results.
{"molecule": "CC(=O)OC12COC1CC(O)C1(C)C(=O)C(OC(=O)C3CC3)C3=C(C)C(OC(=O)C(O)C(NC(=O)OC(C)C)c4ccco4)CC(O)(C(OC(=O)c4ccccc4)C21)C3(C)C (stereo not shown) [Compound 3853, reference compound]", "observed_value": 1}
{"molecule": "CC(=O)OC12COC1CC(O)C1(C)C(=O)C(OC(=O)C3CC3)C3=C(C)C(OC(=O)C(O)C(NC(=O)OC(C)C)c4cccs4)CC(O)(C(OC(=O)c4ccccc4)C21)C3(C)C (stereo not shown) [Compound 3071, reference compound]", "observed_value": 5}
{"molecule": "CC(=O)OC12COC1CC(O)C1(C)C(=O)C(OC(=O)C3CCCC3)C3=C(C)C(OC(=O)C(O)C(NC(=O)OC(C)C)c4cccs4)CC(O)(C(OC(=O)c4ccccc4)C21)C3(C)C (stereo not shown)", "observed_value": "8, 8"}

Alright, here's another molecule for you.
// Rat tox score IV lookup, key: CC(=O)OC12COC1CC(O)C1(C)C(=O)C(OC(=O)C3CC3)C3=C(C)C(OC(=O)C(O)C(NC(=O)OC(C)(C)C)c4ccco4)CC(O)(C(OC(=O)c4ccccc4)C21)C3(C)C (stereo not shown) [Compound 0843, reference compound]
0
